# test-target: LPA1 (Homo sapiens)
# Construct: expressed in transfected cells
# Sequence (Q92633 whole entry): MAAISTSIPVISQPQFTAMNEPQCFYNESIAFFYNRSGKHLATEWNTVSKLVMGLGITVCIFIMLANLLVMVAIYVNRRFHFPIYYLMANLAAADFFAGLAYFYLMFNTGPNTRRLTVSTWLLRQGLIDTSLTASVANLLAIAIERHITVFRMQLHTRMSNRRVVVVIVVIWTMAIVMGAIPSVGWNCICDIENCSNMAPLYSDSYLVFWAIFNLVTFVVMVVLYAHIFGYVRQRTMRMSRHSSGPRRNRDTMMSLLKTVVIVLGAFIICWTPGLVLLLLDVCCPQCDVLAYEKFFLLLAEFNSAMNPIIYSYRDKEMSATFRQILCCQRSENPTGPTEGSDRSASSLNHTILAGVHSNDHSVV
# method-description: Ca2+ transients (agonism / inhibition of LPA response) in RH7777 cells stably expressing LPA1
# Type: cell-based
pIC50: −log10 of the molar value.
Listed compounds paired with reported pIC50

Can you look up pIC50 on LPA1 (Homo sapiens) for CCCCCCCCC=CCCCCCCCCOP(O)(O)=S ?
< 4.52

Can you look up pIC50 on LPA1 (Homo sapiens) for CCCCCCCCCCCCCCOP(O)(O)=S ?
< 4.52

Under LPA1 (Homo sapiens): pIC50 value of C=CCCCCCCCCOP(O)(O)=S ?
< 4.52

Taken from patent US7217704B2.
